Recorded values, source patent US20250195521A1.

tested.target: KRAS G13D (Homo sapiens (Human), UniProt P01116+P62937, G13D)
Sequence (P01116 other isoform, or with tags, fused parts or gaps G13D): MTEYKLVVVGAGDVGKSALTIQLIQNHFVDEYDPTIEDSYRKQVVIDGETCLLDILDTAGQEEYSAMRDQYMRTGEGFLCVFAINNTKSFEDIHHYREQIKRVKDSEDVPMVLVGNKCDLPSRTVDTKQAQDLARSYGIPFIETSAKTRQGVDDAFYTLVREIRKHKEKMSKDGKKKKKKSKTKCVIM
Sequence (P62937 whole entry): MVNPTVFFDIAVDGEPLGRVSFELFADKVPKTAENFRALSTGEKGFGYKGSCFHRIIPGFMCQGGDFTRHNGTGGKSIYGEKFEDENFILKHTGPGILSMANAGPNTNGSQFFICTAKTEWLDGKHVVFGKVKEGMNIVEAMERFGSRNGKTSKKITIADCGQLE
assay.overview: Ras-Raf disruption/FRET/MOA assay, KRAS G13D
Format: biochemical
assay.setup: read-out: KRAS G13D FRET IC50
experimental.endpoint: IC50

| molecule | IC50 |
| --- | --- |
| CCn1c(-c2cnccc2COC)c2c3cc(ccc31)-c1cc(O)cc(c1)C[C@H](NC(=O)[C@H](C(C)C)N(C)C(=O)[C@H]1CCN(C(=O)[C@@H]3CO3)C1)C(=O)N1CCC[C@H](N1)C(=O)OCC(C)(C)C2 [Example 31] | 1 to 10 µM |
| CCn1c(-c2cnccc2COC)c2c3cc(ccc31)-c1cc(O)cc(c1)C[C@H](NC(=O)[C@H](C(C)C)N(C)C(=O)[C@H]1CCN(C(=O)[C@H]3CN3)C1)C(=O)N1CCC[C@H](N1)C(=O)OCC(C)(C)C2 [Example 1] | 0.1 to 1 µM |
| CCn1c(-c2cnccc2COC)c2c3cc(ccc31)-c1cccc(c1)C[C@H](NC(=O)[C@H](C(C)C)N(C)C(=O)CCN=C=Nc1ccc(N3CCOCC3)cc1)C(=O)N1CCC[C@H](N1)C(=O)OCC(C)(C)C2 [Example 67] | 1 to 10 µM |
| CCn1c(-c2cnccc2COC)c2c3cc(ccc31)-c1cccc(c1)C[C@H](NC(=O)[C@H](C(C)C)N1CC[C@H](CN=C=Nc3ccc(OC)cc3)C1)C(=O)N1CCC[C@H](N1)C(=O)OCC(C)(C)C2 [Example 81] | > 10 µM |

# evaluate next
(Q) Query (molecule): CCn1c(-c2cnccc2COC)c2c3cc(ccc31)-c1cccc(c1)C[C@H](NC(=O)[C@H](C(C)C)N1CC[C@@H](CN=C=NCCOC)C1)C(=O)N1CCC[C@H](N1)C(=O)OCC(C)(C)C2 [Example 80] ; field requested: IC50
(A) > 10 µM

---

tested.target: NRAS G12C (Homo sapiens (Human), UniProt P01111+P62937, G12C)
Sequence (P01111 whole entry G12C, one chain of several): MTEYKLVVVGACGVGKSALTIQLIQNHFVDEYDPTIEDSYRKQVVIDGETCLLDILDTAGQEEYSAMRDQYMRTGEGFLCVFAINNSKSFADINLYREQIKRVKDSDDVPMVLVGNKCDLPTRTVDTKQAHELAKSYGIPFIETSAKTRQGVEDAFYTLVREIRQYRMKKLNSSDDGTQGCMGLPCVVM
assay.overview: Ras-Raf disruption/FRET/MOA assay (BRAF RBD, Cyclophilin A)
Format: biochemical
assay.setup: read-out: NRAS G12C FRET data IC50
Kindly state IC50 for each of the entries shown.

| compound | tested.target | IC50 |
| --- | --- | --- |
| CCn1c(-c2cccnc2[C@H](C)OC)c2c3cc(ccc31)-c1csc(n1)C[C@H](NC(=O)[C@H](C(C)C)N(C)C(=O)N1CCO[C@@]3(CCN(C)C3)C1)C(=O)N1CCC[C@H](N1)C(=O)OCC(C)(C)C2 | NRAS G12C (Homo sapiens (Human), UniProt P01111+P62937, G12C) | 10 to 100 nM |
| CCn1c(-c2cccnc2[C@H](C)OC)c2c3cc(ccc31)-c1csc(n1)C[C@H](NC(=O)[C@H](C(C)C)N(C)C(=O)N(C)N(C)C)C(=O)N1CCC[C@H](N1)C(=O)OCC(C)(C)C2 | NRAS G12C (Homo sapiens (Human), UniProt P01111+P62937, G12C) | 10 to 100 nM |
| CCn1c(-c2cccnc2[C@H](C)OC)c2c3cc(ccc31)-c1csc(n1)C[C@H](NC(=O)[C@H](C(C)C)N(C)C(=O)N1CC(OC)C1)C(=O)N1CCC[C@H](N1)C(=O)OCC(C)(C)C2 [Compound A205] | NRAS G12C (Homo sapiens (Human), UniProt P01111+P62937, G12C) | 10 to 100 nM |

Quick batch: IC50 for everything below.
1. CCn1c(-c2cccnc2[C@H](C)OC)c2c3cc(ccc31)-c1cc(O)cc(c1)C[C@H](NC(=O)[C@@H]1CCCCCN1C(C)=O)C(=O)N1CCC[C@H](N1)C(=O)OCC(C)(C)C2
2. CCn1c(-c2cccnc2[C@H](C)OC)c2c3cc(ccc31)-c1cccc(c1)C[C@H](NC(=O)[C@H](C(C)C)N(C)C(=O)[C@@H]1CCN(C3COC3)C1)C(=O)N1CCC[C@H](N1)C(=O)OCC(C)(C)C2

(A)
1: 100 to 1000 nM; 2: 1000 to 10000 nM

---

Kindly state IC50 for each of the entries shown.
tested.target: NRAS Q61K binding to BRAF RBD (Homo sapiens (Human), UniProt P01111+P62937, Q61K)
Sequence (P01111 whole entry Q61K): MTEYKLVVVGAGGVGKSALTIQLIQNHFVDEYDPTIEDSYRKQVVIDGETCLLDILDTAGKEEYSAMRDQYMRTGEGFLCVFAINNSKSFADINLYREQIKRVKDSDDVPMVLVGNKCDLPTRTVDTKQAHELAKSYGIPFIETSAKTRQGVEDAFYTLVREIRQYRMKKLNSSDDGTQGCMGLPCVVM
Sequence (P62937 whole entry): as the sequence (P62937 whole entry) above
assay.overview: Ras-Raf disruption/FRET/MOA assay, NRAS Q61K

Please review the following examples before continuing.
| compound | IC50 |
| --- | --- |
| C=CC(=O)N(C)CCN1CCN(C(=O)N(C)[C@H](C(=O)N[C@H]2CN3CCC=C(C3)c3ccc4c(c3)c(c(-c3cccnc3[C@H](C)OC)n4CC)CC(C)(C)COC(=O)[C@@H]3CCCN(N3)C2=O)C(C)C)C[C@@H]1C [Compound A570] | 100 to 1000 nM |
| C=CC(=O)N(C)CC1CCN(C(=O)N(C)[C@H](C(=O)N[C@H]2Cc3nc(cs3)-c3ccc4c(c3)c(c(-c3cccnc3[C@H](C)OC)n4CC)CC(C)(C)COC(=O)[C@@H]3CCCN(N3)C2=O)C(C)C)CC1 (atropisomer, axis not shown) [Compound A629] | 10 to 100 nM |
| C=CC(=O)N1CC[C@H](C(=O)N(C)[C@H](C(=O)N[C@H]2CC3CN(CCO3)c3ccc4c(c3)c(c(-c3cccnc3[C@H](C)OC)n4CC)CC(C)(C)COC(=O)[C@@H]3CCCN(N3)C2=O)C(C)C)C1 [Compound A378] | > 10000 nM |

# evaluate next
(Q) Query (compound): C=CC(=O)C1CC[C@H](C(=O)N(C)[C@H](C(=O)N[C@H]2Cc3cccc(c3)-c3ccc4c(c3)c(c(-c3cccnc3[C@H](C)OC)n4CC)CC(C)(C)COC(=O)[C@@H]3CCCN(N3)C2=O)C(C)(C)F)C1 (stereo partly shown) [Compound A693] ; field requested: IC50
(A) 1000 to 10000 nM

---

tested.target: NRAS Q61R (Homo sapiens (Human), UniProt P01111+P62937, Q61R)
Sequence (P01111 whole entry Q61R, one chain of several): as the sequence (P01111 whole entry G12C, one chain of several) above, with C12G, Q61R counted along it
assay.overview: Ras-Raf disruption/FRET/MOA assay (BRAF RBD, Cyclophilin A)
Assay type: biochemical
pIC50: −log10 of the molar value.
Kindly state pIC50 for each of the entries shown.

Please review the following examples before continuing.
| compound | pIC50 |
| --- | --- |
| CCn1c(-c2cccnc2[C@H](C)OC)c2c3cc(ccc31)-c1csc(n1)C[C@H](NC(=O)[C@H](C(C)C)N(C)C(=O)[C@@H]1[C@@H]3CN(C)C[C@@H]31)C(=O)N1CCC[C@H](N1)C(=O)OCC(C)(C)C2 | 5.00 to 6.00 |
| CCn1c(-c2cccnc2[C@H](C)OC)c2c3cc(ccc31)-c1csc(n1)C[C@H](NC(=O)[C@H](C(C)C)N(C)C(=O)N1CCCC13CN(C)C3)C(=O)N1CCC[C@H](N1)C(=O)OCC(C)(C)C2 | 6.00 to 7.00 |
| CCn1c(-c2cccnc2[C@H](C)OC)c2c3cc(ccc31)-c1csc(n1)C[C@H](NC(=O)[C@H](C(C)C)N(C)C(=O)N1CC([C@H](C)N(C)C)C1)C(=O)N1CCC[C@H](N1)C(=O)OCC(C)(C)C2 | 6.00 to 7.00 |
| CCn1c(-c2cccnc2[C@H](C)OC)c2c3cc(ccc31)-c1cccc(c1)C[C@H](NC(=O)[C@H](C(C)C)N(C)C(=O)[C@@H]1OCC[C@@H]1c1ccccc1)C(=O)N1CCC[C@H](N1)C(=O)OCC(C)(C)C2 | 6.00 to 7.00 |
| CCn1c(-c2cccnc2[C@H](C)OC)c2c3cc(ccc31)-c1csc(n1)C[C@H](NC(=O)[C@@H]1CCO1)C(=O)N1CCC[C@H](N1)C(=O)OCC(C)(C)C2 | 5.00 to 6.00 |
| CCn1c(-c2cccnc2[C@H](C)OC)c2c3cc(ccc31)-c1csc(n1)C[C@H](NC(=O)[C@H](C(C)C)N(C)C(=O)N1CC[C@@H](F)[C@H](N)C1)C(=O)N1CCC[C@H](N1)C(=O)OCC(C)(C)C2 | 6.00 to 7.00 |

Quick batch: pIC50 for everything below.
1. CCn1c(-c2cccnc2[C@H](C)OC)c2c3cc(ccc31)-c1cc(O)cc(c1)C[C@H](NC(=O)C(C)C1CCOCC1)C(=O)N1CCC[C@H](N1)C(=O)OCC(C)(C)C2 (stereo partly drawn)
2. CCn1c(-c2cccnc2[C@H](C)OC)c2c3cc(ccc31)-c1csc(n1)C[C@H](NC(=O)[C@H](C(C)C)N(C)C(=O)N1CC(CN(C)C)C1)C(=O)N1CCC[C@H](N1)C(=O)OCC(C)(C)C2
3. CCn1c(-c2cccnc2[C@H](C)OC)c2c3cc(ccc31)-c1csc(n1)C[C@H](NC(=O)[C@H](C(C)C)N(C)C(=O)N1CC(C#N)(N(C)C)C1)C(=O)N1CCC[C@H](N1)C(=O)OCC(C)(C)C2

(A)
1: 5.00 to 6.00; 2: 6.00 to 7.00; 3: 6.00 to 7.00
